assay: brain penetration in healthy Rhesus macaque monkeys (LC-MS, MALDI IMS); assay type: in vivo; settings: male, rhesus monkey, brain homogenate / plasma, oral, mean of Monkey 1 and 2; read-out: Mean Kp, uu Brain/Plasma

>  <smiles>
NC(=O)c1cccc2cn(-c3ccc([C@@H]4CCCNC4)cc3)nc12

>  <Kp uu>
0.3

$$$$

---

experiment: brain penetration in mouse brain metastatic tumor model (LC-MS, MALDI IMS); type: in vivo, mice; conditions: female, CrTac:NCr-Foxnlnu, mouse, plasma, oral, BM (brain metastases) mice; po QD 5 days, niraparib 35 mg/kg, olaparib 50 mg/kg; 2 hr post final dose; read-out: Terminal Plasma Avg, total concentration
recordedMetric: concentration at 2 h (ng/mL)

>  <smiles>
NC(=O)c1cccc2cn(-c3ccc([C@@H]4CCCNC4)cc3)nc12

>  <recordedMetric>
concentration at 2 h

>  <quantitativeResult>
2540

$$$$
>  <smiles>
O=C(c1cc(Cc2n[nH]c(=O)c3ccccc23)ccc1F)N1CCN(C(=O)C2CC2)CC1

>  <recordedMetric>
concentration at 2 h

>  <quantitativeResult>
254

$$$$

Where do the numbers come from? From patent US20250352534A1.
